# credit: patent US20180141988A1

# target.or.test.system: T1, murine GPC3 (6938-GP; R&D systems), biotinylated (murine, UniProt Q8CFZ4 25-558, limits assumed, biotinylated using standard NHS chemistry)
# T1 construct: Bought protein; also called mouse GPC3
# T1 sequence (Q8CFZ4 25-558 limits assumed): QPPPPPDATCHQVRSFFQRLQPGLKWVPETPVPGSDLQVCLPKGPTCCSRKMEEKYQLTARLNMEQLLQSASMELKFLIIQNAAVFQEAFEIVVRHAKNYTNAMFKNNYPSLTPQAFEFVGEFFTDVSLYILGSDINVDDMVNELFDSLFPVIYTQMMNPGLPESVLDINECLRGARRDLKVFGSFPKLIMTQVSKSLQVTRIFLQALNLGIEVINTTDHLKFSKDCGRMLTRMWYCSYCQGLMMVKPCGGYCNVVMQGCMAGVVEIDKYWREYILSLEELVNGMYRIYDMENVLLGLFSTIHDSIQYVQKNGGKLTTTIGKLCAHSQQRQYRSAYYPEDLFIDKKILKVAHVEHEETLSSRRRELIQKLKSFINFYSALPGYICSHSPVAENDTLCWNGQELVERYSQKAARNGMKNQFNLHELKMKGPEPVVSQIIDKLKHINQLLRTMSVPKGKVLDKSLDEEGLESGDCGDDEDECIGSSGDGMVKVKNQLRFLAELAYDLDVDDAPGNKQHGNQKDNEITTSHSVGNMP
# assay.protocol: SPR (Biacore T200), biotinylated GPC3 captured on chip, mutein in flow
reported.metric: koff (s⁻¹)

1) lipocalin mutein of SEQ ID NO: 6 (designed binder, hNGAL (Lcn2) mutein; also called optimized GPC3 specific lipocalin mutein) QDSTSDLIPAPPLSKVPLQQNFQDNQFQGKWYVVGVAGNVRLREDKDPPKMRATIYELKEDKSYDVTGVSFRGKKCHYKIGTFVPGSQPGEFTLGDIKSGPGETSNLVRVVSTNYNQHAMVFFKEVRQNREWFFITLYGRTKELTSELKENFIRFSKSLGLPENHIVFPVPIDQCIDGSAWSHPQFEK = 4.2e-05
2) lipocalin mutein of SEQ ID NO: 8 (designed binder, hNGAL (Lcn2) mutein; also called optimized GPC3 specific lipocalin mutein) QDSTSDLIPAPPLSKVPLQQNFQDNQFQGKWYVVGRAGNVGLREDKDPPKMWATIYELKEDKSYDVTNVRFARKKCLYSIGTFVPGSQPGEFTLGQIKSEPGNTANLVRVVSTNYNQHAMVFFKEVYQNREIFFIILYGRTKELTSELKENFIRFSKSLGLPENHIVFPVPIDQCIDGSAWSHPQFEK = 0.00018
3) lipocalin mutein of SEQ ID NO: 7 (designed binder, hNGAL (Lcn2) mutein; also called optimized GPC3 specific lipocalin mutein) QDSTSDLIPAPPLSKVPLQQNFQDNQFQGKWYVVGVAGNGMLREDKDPLKMRATIYELKEDKSYDVTSVAFRNKKCHYKIGTFVPGSQPGEFTLGQIKSGPGETSNLVRVVSTNYNQHAMVFFKEVRQNREWFFITLYGRTKELTSELKENFIRFSKSLGLPENHIVFPVPIDQCIDGSAWSHPQFEK = 0.00015
4) lipocalin mutein of SEQ ID NO: 11 (designed binder, hNGAL (Lcn2) mutein; also called optimized GPC3 specific lipocalin mutein) QDSTSDLIPAPPLSKVPLQQNFQDNQFQGKWYVVGRAGNVALREDKDPPKMRATIYELKEDKSYDVTAVRFARKKCLYSIGTFVPGSQPGEFTLGRIKSEPGYTANLVRVVSTNYNQHAMVFFKEVYQNREIFFIILYGRTKELTSELKENFIRFSKSLGLPENHIVFPVPIDQCIDGSAWSHPQFEK = 3.2e-05
5) lipocalin mutein of SEQ ID NO: 12 (designed binder, hNGAL (Lcn2) mutein; also called optimized GPC3 specific lipocalin mutein) QDSTSDLIPAPPLSKVPLQQNFQDNQFQGKWYVVGRAGNVALREDKDPPKMRATIYELKEDKSYDVTNVVFAGKKCKYSIGTFVPGSQPGEFTLGRIKSPPGNTANLVRVVSTNYNQHAMVFFKEVYQNREIFFIILYGRTKELTSELKENFIRFSKSLGLPENHIVFPVPIDQCIDGSAWSHPQFEK = 0.0003
6) lipocalin mutein of SEQ ID NO: 15 (designed binder, hNGAL (Lcn2) mutein; also called optimized GPC3 specific lipocalin mutein) QDSTSDLIPAPPLSKVPLQQNFQDNQFQGKWYVVGRAGNVGLREDKDPPKMRATIYELKEDKSYDVTGVRFGEKKIKYSIGTFVPGSQPGEFTLGQIKSQPGDTANLVRVVSTNYNQHAMVFFKEVYQNREIFFIILYGRTKELTSELKENFIRFSKSLGLPENHIVFPVPIDQAIDGSAWSHPQFEK = 9.1e-05
